Molecular target: Met receptor (EGFR/Met chimeric cells, EMR) (Homo sapiens)
Construct: expressed in transfected cells; the other entry of the earlier key: EGFR (P00533, Epidermal growth factor receptor)
Sequence (P08581 with tags, fused parts or gaps): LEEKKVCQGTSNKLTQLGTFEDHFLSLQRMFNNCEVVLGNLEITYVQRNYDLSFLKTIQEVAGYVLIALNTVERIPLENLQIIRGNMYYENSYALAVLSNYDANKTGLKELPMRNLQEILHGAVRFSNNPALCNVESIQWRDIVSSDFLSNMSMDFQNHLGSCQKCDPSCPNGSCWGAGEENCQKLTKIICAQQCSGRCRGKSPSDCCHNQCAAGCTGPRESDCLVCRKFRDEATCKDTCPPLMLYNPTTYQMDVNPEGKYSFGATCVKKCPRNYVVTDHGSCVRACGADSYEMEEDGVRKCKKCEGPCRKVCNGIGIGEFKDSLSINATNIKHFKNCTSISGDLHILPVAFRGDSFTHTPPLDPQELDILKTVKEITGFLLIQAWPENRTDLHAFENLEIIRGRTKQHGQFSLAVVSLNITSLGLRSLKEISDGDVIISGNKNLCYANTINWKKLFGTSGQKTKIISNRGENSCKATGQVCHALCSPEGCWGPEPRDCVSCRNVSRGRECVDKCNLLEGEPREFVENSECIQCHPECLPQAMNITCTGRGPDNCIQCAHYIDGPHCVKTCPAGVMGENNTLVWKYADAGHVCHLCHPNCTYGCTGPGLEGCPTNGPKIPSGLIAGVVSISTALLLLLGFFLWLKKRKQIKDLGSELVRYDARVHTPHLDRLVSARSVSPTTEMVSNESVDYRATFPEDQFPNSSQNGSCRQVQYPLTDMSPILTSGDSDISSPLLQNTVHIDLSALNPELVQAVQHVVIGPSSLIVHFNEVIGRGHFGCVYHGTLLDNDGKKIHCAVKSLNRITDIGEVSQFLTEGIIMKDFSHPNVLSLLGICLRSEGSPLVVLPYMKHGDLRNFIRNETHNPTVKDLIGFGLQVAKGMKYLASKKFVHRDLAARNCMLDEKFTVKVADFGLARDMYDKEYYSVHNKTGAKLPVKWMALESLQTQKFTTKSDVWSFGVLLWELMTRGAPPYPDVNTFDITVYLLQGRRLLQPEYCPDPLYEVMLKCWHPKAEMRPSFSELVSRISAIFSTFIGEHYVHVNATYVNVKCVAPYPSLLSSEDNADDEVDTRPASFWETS
Assay: Met Autophosphorylation Assay; further: test concentration or dose not given here
Type: biochemical
Conditions: protocol P.130
OBSERVED_PROPERTY: Met Kinase % Inhibition (P.130) (%)

{"SMILES_NOTATION": "O=C1Nc2ccc(CCCl)cc2C1=Cc1ccc(OCc2ccccc2)cc1", "OBSERVED_PROPERTY": "Met Kinase % Inhibition (P.130)", "TEST_VALUE": 4.1}
{"SMILES_NOTATION": "CCOc1ccc(C=C2C(=O)Nc3ccc(S(=O)(=O)N4CCOCC4)cc32)cc1", "OBSERVED_PROPERTY": "Met Kinase % Inhibition (P.130)", "TEST_VALUE": 67.4}
{"SMILES_NOTATION": "CNS(=O)(=O)c1ccc2c(c1)C(=Cc1cn(C)c3ccccc13)C(=O)N2", "OBSERVED_PROPERTY": "Met Kinase % Inhibition (P.130)", "TEST_VALUE": 27.3}
{"SMILES_NOTATION": "O=C1Nc2c(Br)cc(Br)cc2C1=Cc1cc(Br)cs1", "OBSERVED_PROPERTY": "Met Kinase % Inhibition (P.130)", "TEST_VALUE": 45.1}
{"SMILES_NOTATION": "COc1ccc(C=C2C(=O)Nc3c(Br)cc(Br)c(C)c32)cc1F", "OBSERVED_PROPERTY": "Met Kinase % Inhibition (P.130)", "TEST_VALUE": 28.7}
